Reported values of pIC50 for individual entries
target: Dimer of Gag-Pol polyprotein [489-587,Q496K,L499I,M525I,N526D,M535I,R546K,L552P,A560V,G562S,I573V,L579M,I582L] (Human immunodeficiency virus 1, UniProt P12497, A560V/G562S/I573V/I582L/L499I/L552P/L579M/M525I/M535I/N526D/Q496K/R546K); construct: 489-587; assay: Protease Inhibition Assay
pIC50: −log10 of the molar value.

SMILES_DATA	pIC50
CC(C)(c1ncc(-c2ccc(F)cc2)o1)N1CCN(C[C@@H](O)C[C@@H](Cc2nnco2)C(=O)N[C@H]2c3ccccc3OC[C@H]2O)[C@H](C(=O)NCC(F)(F)F)C1	10.19
COc1cncc(-c2cnc(C(C)(C)N3CCN(C[C@@H](O)C[C@@H](Cc4nnc(C)o4)C(=O)N[C@H]4c5ccccc5OC[C@H]4O)[C@H](C(=O)NCC(F)(F)F)C3)o2)c1	7.82
CC(C)(c1ncc(-c2ccc(Cl)cc2)o1)N1CCN(C[C@@H](O)C[C@@H](Cc2nnco2)C(=O)N[C@H]2c3ccccc3OC[C@H]2O)[C@H](C(=O)NCC(F)(F)F)C1	10.37
CC(C)(c1ncc(-c2ccc(Cl)cc2)o1)N1CCN(C[C@@H](O)C[C@@H](Cc2nnc(-c3ccccc3)o2)C(=O)N[C@H]2c3ccccc3OC[C@H]2O)[C@H](C(=O)NCC(F)(F)F)C1	9.74
CCCc1nnc(C[C@H](C[C@H](O)CN2CCN(C(C)(C)c3ncc(-c4ccc(F)cc4)o3)C[C@H]2C(=O)NCC(F)(F)F)C(=O)N[C@H]2c3ccccc3OC[C@H]2O)o1	9.72
